Kindly supply the reported abundance fitness values for the records listed here.
B1: POU domain, class 2, transcription factor 1, residues 285 to 354; numbered along this chain, P14859 (parent)
chain: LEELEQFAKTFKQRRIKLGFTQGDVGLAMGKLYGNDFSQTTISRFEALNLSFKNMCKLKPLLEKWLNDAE

- Variants of: B1
- measurement.protocol: abundance fitness (aPCA) (normalised: wild type 0, dead -1); higher = more abundant; growth selection in yeast, the domain comes from the species named
- applied.conditions: Homo sapiens
Lab note: write the figure by itself, no unit.

Data request: I would be grateful if you could share the reported abundance fitness for F37P .
Data returned: -0.148

Data request: I would be grateful if you could share the reported abundance fitness for L62I .
Data returned: -0.091

Data request: I would be grateful if you could share the reported abundance fitness for A28P .
Data returned: -0.56

Data request: I would be grateful if you could share the reported abundance fitness for L62D .
Data returned: -0.354

Data request: I would be grateful if you could share the reported abundance fitness for C56S .
Data returned: 0.032

Data request: I would be grateful if you could share the reported abundance fitness for G30D .
Data returned: -0.087

Data request: I would be grateful if you could share the reported abundance fitness for P60T .
Data returned: -0.08

Data request: I would be grateful if you could share the reported abundance fitness for K31A .
Data returned: -0.027

Data request: I would be grateful if you could share the reported abundance fitness for G26H .
Data returned: -0.098

Data request: I would be grateful if you could share the reported abundance fitness for D24E .
Data returned: -0.008

Data request: I would be grateful if you could share the reported abundance fitness for K31G .
Data returned: -0.066
